Measured solubility, listed per entry.
- assayMethodText: physchem
- Format: physicochemical
- measurementContext: methanol, organic solvent or mixture
property: solubility (mg/mL)

compound | unitsText | resultValue
CO/N=C(\C(=O)N[C@@H]1C(=O)N2C(C(=O)O[C@H](C)OC(C)=O)=C(COC(N)=O)CS[C@H]12)c1ccco1 | mg/mL | 391
CO/N=C(\C(=O)N[C@@H]1C(=O)N2C(C(=O)O[C@@H](C)OC(C)=O)=C(COC(N)=O)CS[C@H]12)c1ccco1 [S-cefuroxime axetil, reference compound] | mg/mL | 90
